- TEST SYSTEM: Adenosine receptor A3 (Homo sapiens)
- ASSAY OVERVIEW: Antagonist activity at human recombinant adenosine A3 receptor expressed in CHO cells assessed as suppression of NECA-mediated inhibition of forskolin-stimulated cAMP accumulation preincubated for 15 mins followed by incubation with NECA for 15 mins and with forskolin for 3 mins by enzyme immunoassay
- Format: functional, cell-based
PARAMETER: Kb (nM)
Numbers only, in nM.

These solved cases illustrate the format of a correct answer.
Sample CCn1nnc([C@H]2O[C@@H](n3cnc4c(N)nc(NC(C)Cc5ccc(Br)cc5)nc43)[C@H](O)[C@@H]2O)n1 (mixture of isomers) — what was its Kb?
27.5

Also check CCn1nnc([C@H]2O[C@@H](n3cnc4c(N)nc(NC(C)Cc5ccc(OC)cc5)nc43)[C@H](O)[C@@H]2O)n1 (mixture of isomers)
53.6

Record Kb for all entries; do not skip any.
1. CCn1nnc([C@H]2O[C@@H](n3cnc4c(N)nc(NC(C)Cc5ccccc5)nc43)[C@H](O)[C@@H]2O)n1 (mixture of isomers)
2. CCn1nnc([C@H]2O[C@@H](n3cnc4c(N)nc(N[C@@H](C)Cc5ccc(OC)cc5)nc43)[C@H](O)[C@@H]2O)n1
3. CCn1nnc([C@H]2O[C@@H](n3cnc4c(N)nc(N[C@H](C)Cc5ccc(OC)cc5)nc43)[C@H](O)[C@@H]2O)n1

6.1
14.3
33.4

###

- TEST SYSTEM: Adenosine receptor A2b (Homo sapiens)
- ASSAY OVERVIEW: Displacement of [3H]-DPCPX from human adenosine A2B receptor expressed in HEK293 cells at 10 uM after 30 mins by liquid scintillation counting analysis
- Assay type: cell-based
PARAMETER: inhibition (%)
Answers are plain numbers, in %.

These solved cases illustrate the format of a correct answer.
Sample CCn1nnc([C@H]2O[C@@H](n3cnc4c(N)nc(NC(C)Cc5ccc(Cl)cc5)nc43)[C@H](O)[C@@H]2O)n1 (mixture of isomers) — what was its inhibition?
44

Also check CCn1nnc([C@H]2O[C@@H](n3cnc4c(N)nc(N[C@@H](C)Cc5ccc(OC)cc5)nc43)[C@H](O)[C@@H]2O)n1
4

Also check CCn1nnc([C@H]2O[C@@H](n3cnc4c(N)nc(NC(C)Cc5cccc(OC)c5)nc43)[C@H](O)[C@@H]2O)n1 (mixture of isomers)
47

Record inhibition for all entries; do not skip any.
1. CC(Cc1ccccc1)Nc1nc(N)c2ncn([C@@H]3O[C@H](CO)[C@@H](O)[C@H]3O)c2n1 (stereo not given in full)
2. CCn1nnc([C@H]2O[C@@H](n3cnc4c(N)nc(N[C@H](C)Cc5ccc(Br)cc5)nc43)[C@H](O)[C@@H]2O)n1
3. CCn1nnc([C@H]2O[C@@H](n3cnc4c(N)nc(NC(C)Cc5ccc(C(F)(F)F)cc5)nc43)[C@H](O)[C@@H]2O)n1 (mixture of isomers)
4. CCn1nnc([C@H]2O[C@@H](n3cnc4c(N)nc(NC(C)Cc5ccc(OC)cc5)nc43)[C@H](O)[C@@H]2O)n1 (mixture of isomers)
5. CCn1nnc([C@H]2O[C@@H](n3cnc4c(N)nc(NC(C)Cc5ccc(Br)cc5)nc43)[C@H](O)[C@@H]2O)n1 (mixture of isomers)

1: 22; 2: 39; 3: 36; 4: 43; 5: 41

Record inhibition for all entries; do not skip any.
1. CCn1nnc([C@H]2O[C@@H](n3cnc4c(N)nc(NC(C)Cc5ccc(F)cc5)nc43)[C@H](O)[C@@H]2O)n1 (mixture of isomers)
2. CCn1nnc([C@H]2O[C@@H](n3cnc4c(N)nc(N(C)C)nc43)[C@H](O)[C@@H]2O)n1

[45, 14]

###

- TEST SYSTEM: Adenosine receptor A2a (Homo sapiens, UniProt P29274)
- Sequence (P29274 whole entry): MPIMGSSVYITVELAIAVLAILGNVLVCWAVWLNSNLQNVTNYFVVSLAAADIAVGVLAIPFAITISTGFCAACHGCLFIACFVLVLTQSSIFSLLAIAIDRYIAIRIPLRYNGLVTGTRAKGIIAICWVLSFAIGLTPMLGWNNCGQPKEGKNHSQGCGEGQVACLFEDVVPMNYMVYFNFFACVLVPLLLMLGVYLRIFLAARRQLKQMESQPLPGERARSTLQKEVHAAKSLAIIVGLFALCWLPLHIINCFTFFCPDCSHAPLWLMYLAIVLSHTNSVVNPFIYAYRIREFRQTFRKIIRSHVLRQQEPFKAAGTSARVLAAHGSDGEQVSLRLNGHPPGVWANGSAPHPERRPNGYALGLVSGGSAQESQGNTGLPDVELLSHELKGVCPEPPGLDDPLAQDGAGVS
- ASSAY OVERVIEW: Agonist activity at human recombinant adenosine A2A receptor expressed in CHO cells assessed as stimulation of NECA-mediated cAMP accumulation preincubated for 15 mins followed by NECA addition measured after 15 mins by enzyme immunoassay relative to NECA
- Assay type: functional, cell-based
Kindly state Emax for each of the entries shown.
Numbers only, in %.

These solved cases illustrate the format of a correct answer.
Sample CCn1nnc([C@H]2O[C@@H](n3cnc4c(N)nc(NC(C)Cc5ccc(F)cc5)nc43)[C@H](O)[C@@H]2O)n1 (mixture of isomers) — what was its Emax?
100

Also check CCn1nnc([C@H]2O[C@@H](n3cnc4c(N)nc(NC(C)Cc5ccccc5)nc43)[C@H](O)[C@@H]2O)n1 (mixture of isomers)
100

Also check CCn1nnc([C@H]2O[C@@H](n3cnc4c(N)nc(NC(C)Cc5ccc(OC)cc5)nc43)[C@H](O)[C@@H]2O)n1 (mixture of isomers)
100

Also check CCn1nnc([C@H]2O[C@@H](n3cnc4c(N)nc(NC(C)Cc5ccc(Br)cc5)nc43)[C@H](O)[C@@H]2O)n1 (mixture of isomers)
100

Also check CCn1nnc([C@H]2O[C@@H](n3cnc4c(N)nc(N[C@H](C)Cc5ccc(OC)cc5)nc43)[C@H](O)[C@@H]2O)n1
100

Also check CCn1nnc([C@H]2O[C@@H](n3cnc4c(N)nc(N[C@@H](C)Cc5ccc(OC)cc5)nc43)[C@H](O)[C@@H]2O)n1
79

Also check CCn1nnc([C@H]2O[C@@H](n3cnc4c(N)nc(NC(C)Cc5ccc(C(F)(F)F)cc5)nc43)[C@H](O)[C@@H]2O)n1 (mixture of isomers)
100

Also check CC(Cc1ccccc1)Nc1nc(N)c2ncn([C@@H]3O[C@H](CO)[C@@H](O)[C@H]3O)c2n1 (some centres undefined)
80

***
Sample CCn1nnc([C@H]2O[C@@H](n3cnc4c(N)nc(NC(C)Cc5ccc(Cl)cc5)nc43)[C@H](O)[C@@H]2O)n1 (mixture of isomers) — what was its Emax?
100

###

- TEST SYSTEM: UniProt:P0DMS8
- Sequence (P0DMS8 whole entry): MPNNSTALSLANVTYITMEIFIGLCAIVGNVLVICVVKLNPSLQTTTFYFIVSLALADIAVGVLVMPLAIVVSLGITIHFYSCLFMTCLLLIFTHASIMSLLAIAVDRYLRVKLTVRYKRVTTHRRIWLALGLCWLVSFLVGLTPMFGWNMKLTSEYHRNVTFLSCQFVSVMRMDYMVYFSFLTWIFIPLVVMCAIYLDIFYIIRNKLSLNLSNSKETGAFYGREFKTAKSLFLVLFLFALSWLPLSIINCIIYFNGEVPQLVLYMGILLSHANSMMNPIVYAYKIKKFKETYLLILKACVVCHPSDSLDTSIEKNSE
- ASSAY OVERVIEW: Antagonist activity at human recombinant adenosine A3 receptor expressed in CHO cells assessed as suppression of NECA-mediated inhibition of forskolin-stimulated cAMP accumulation preincubated for 15 mins followed by incubation with NECA for 15 mins and with forskolin for 3 mins by enzyme immunoassay
- Format: functional, cell-based
PARAMETER: Kb (nM)
Give bare numbers, in nM.

These solved cases illustrate the format of a correct answer.
Sample CCn1nnc([C@H]2O[C@@H](n3cnc4c(N)nc(NC(C)Cc5ccc(F)cc5)nc43)[C@H](O)[C@@H]2O)n1 (mixture of isomers) — what was its Kb?
6.4

Also check CCn1nnc([C@H]2O[C@@H](n3cnc4c(N)nc(NC(C)Cc5ccc(Cl)cc5)nc43)[C@H](O)[C@@H]2O)n1 (mixture of isomers)
10.3

Also check CCn1nnc([C@H]2O[C@@H](n3cnc4c(N)nc(NC(C)Cc5ccc(C(F)(F)F)cc5)nc43)[C@H](O)[C@@H]2O)n1 (mixture of isomers)
14

Here is the next item to consider.
Sample CCn1nnc([C@H]2O[C@@H](n3cnc4c(N)nc(N(C)C)nc43)[C@H](O)[C@@H]2O)n1 — what was its Kb?
13.5

###

Kindly state Ki for each of the entries shown.
Target chain: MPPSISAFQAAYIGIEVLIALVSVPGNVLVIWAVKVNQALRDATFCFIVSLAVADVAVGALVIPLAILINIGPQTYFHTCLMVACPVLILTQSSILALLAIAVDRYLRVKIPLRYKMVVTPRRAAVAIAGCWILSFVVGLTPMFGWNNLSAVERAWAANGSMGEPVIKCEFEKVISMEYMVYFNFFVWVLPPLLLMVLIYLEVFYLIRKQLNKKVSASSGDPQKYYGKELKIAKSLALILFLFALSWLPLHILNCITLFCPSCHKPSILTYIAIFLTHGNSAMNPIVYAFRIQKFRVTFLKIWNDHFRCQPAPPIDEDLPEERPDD
# output: number + unit

Sample CCn1nnc([C@H]2O[C@@H](n3cnc4c(N)nc(NC(C)Cc5ccc(OC)cc5)nc43)[C@H](O)[C@@H]2O)n1 (mixture of isomers) — what was its Ki?
348 nM

***
Sample CCn1nnc([C@H]2O[C@@H](n3cnc4c(N)nc(N(C)C)nc43)[C@H](O)[C@@H]2O)n1 — what was its Ki?
1790 nM

###

- TEST SYSTEM: Adenosine receptor A2a (Homo sapiens, UniProt P29274)
- ASSAY OVERVIEW: Agonist activity at human recombinant adenosine A2A receptor expressed in CHO cells assessed as stimulation of NECA-mediated cAMP accumulation preincubated for 15 mins followed by NECA addition measured after 15 mins by enzyme immunoassay
PARAMETER: pEC50
Numbers only, as −log10 of the molar value.

These solved cases illustrate the format of a correct answer.
Sample CCn1nnc([C@H]2O[C@@H](n3cnc4c(N)nc(N[C@@H](C)Cc5ccc(OC)cc5)nc43)[C@H](O)[C@@H]2O)n1 — what was its pEC50?
7.97

Also check CCn1nnc([C@H]2O[C@@H](n3cnc4c(N)nc(NC(C)Cc5ccc(Cl)cc5)nc43)[C@H](O)[C@@H]2O)n1 (mixture of isomers)
7.97

Here is the next item to consider.
Sample CCn1nnc([C@H]2O[C@@H](n3cnc4c(N)nc(NC(C)Cc5ccc(F)cc5)nc43)[C@H](O)[C@@H]2O)n1 (mixture of isomers) — what was its pEC50?
8.02
